Each recorded value in this set is attributed to patent US20250144067A1.

System: NCI-H292 lung cancer cells
test_summary: FDA drug screening, complete media vs cholesterol-free media with simvastatin (TABLE 2)
Assay type: cell-based, human
recorded_conditions: NCI-H292 cells, cholesterol-free media with simvastatin 0.04 μM; cell growth value in FDA drug screen
Counter-ions that a name gives are not always drawn.
measurement_name: Cholesterol-free media + simvastatin (0.04 μM)
No unit in the answer, please; the number alone is enough.

[in] Complete the entry with Cholesterol-free media + simvastatin (0.04 μM) for NCCCC(O)(P(=O)(O)O)P(=O)(O)O [Alendronic acid]
[out] 0.8926

[in] Complete the entry with Cholesterol-free media + simvastatin (0.04 μM) for Cc1ccccc1-c1cc(N2CCN(C)CC2)ncc1N(C)C(=O)C(C)(C)c1cc(C(F)(F)F)cc(C(F)(F)F)c1 [Netupitant]
[out] 0.8546

[in] Complete the entry with Cholesterol-free media + simvastatin (0.04 μM) for CN(C)N(C)C(=O)[C@@]1(Cc2ccccc2)CCCN(C(=O)[C@@H](Cc2c[nH]c3ccccc23)NC(=O)C(C)(C)N)C1 [Anamorelin]
[out] 1.263

[in] Complete the entry with Cholesterol-free media + simvastatin (0.04 μM) for CNC[C@H](O)c1ccc(O)c(O)c1.O=C(O)C(O)C(O)C(=O)O [L-Epinephrine (Bitartrate)]
[out] 1.096

[in] Complete the entry with Cholesterol-free media + simvastatin (0.04 μM) for COc1ccc(CCO[C@@H]2CCCC[C@H]2N2CC[C@@H](O)C2)cc1OC [Vernakalant (Hydrochloride)]
[out] 1.555

[in] Complete the entry with Cholesterol-free media + simvastatin (0.04 μM) for Cc1cnc(NC(=O)C2=C(O)c3ccccc3S(=O)(=O)N2C)s1 [Meloxicam]
[out] 1.111

[in] Complete the entry with Cholesterol-free media + simvastatin (0.04 μM) for C#Cc1cccc(Nc2ncnc3cc4c(cc23)OCCOCCOCCO4)c1 [Icotinib]
[out] 0.6476

====

Test system: NCI-H292 lung cancer cells
test_summary: FDA drug screening, complete media vs cholesterol-free media with simvastatin (TABLE 2)
Assay type: cell-based, human
recorded_conditions: complete media vs cholesterol-free media + simvastatin (0.04 μM); >0 enhanced anti-cancer activity, about 0 neutral, <0 antagonist
Counter-ions that a name gives are not always drawn.
Doc: threshold -0.3 (exclusive). Items with Difference beneath it return yes (1); others return no (0).

[in] Confirm or reject: Difference of CNCCC=C1c2ccccc2CCc2ccccc21 [Nortriptyline (hydrochloride)] lies strictly below -0.3
[out] no (0)

[in] Confirm or reject: Difference of `CC1=C(C(=O)O)N2C(=O)[C@@H](NC(=O)[C@H](N)c3ccccc3)[C@H]2SC1` lies strictly below -0.3
[out] yes (1)

[in] Confirm or reject: Difference of `CCC(=O)NS(=O)(=O)c1ccc(-c2c(-c3ccccc3)noc2C)cc1` lies strictly below -0.3
[out] no (0)

[in] Confirm or reject: Difference of `N[C@H](C(=O)O)[C@H](O)c1ccc(O)c(O)c1` lies strictly below -0.3
[out] no (0)

[in] Confirm or reject: Difference of CCCCC[C@H](O)/C=C/[C@@H]1[C@@H](C/C=C\CCCC(=O)O)[C@@H](O)C[C@H]1O.NC(CO)(CO)CO [Dinoprost (tromethamine salt)] lies strictly below -0.3
[out] yes (1)

[in] Confirm or reject: Difference of CCCCS(=O)(=O)N[C@@H](Cc1ccc(OCCCCC2CCNCC2)cc1)C(=O)O [Tirofiban (hydrochloride monohydrate)] lies strictly below -0.3
[out] no (0)

[in] Confirm or reject: Difference of CNCc1ccc(-c2[nH]c3cc(F)cc4c3c2CCNC4=O)cc1 [Rucaparib (Camsylate)] lies strictly below -0.3
[out] no (0)

[in] Confirm or reject: Difference of `C/C(=C\C(=O)OCCCCCCCCC(=O)O)C[C@@H]1OC[C@H](C[C@@H]2O[C@H]2[C@@H](C)[C@H](C)O)[C@@H](O)[C@H]1O` lies strictly below -0.3
[out] yes (1)

[in] Confirm or reject: Difference of CC(C)(Oc1ccc(C2CC2(Cl)Cl)cc1)C(=O)O (stereo not drawn) [Ciprofibrate] lies strictly below -0.3
[out] yes (1)

[in] Confirm or reject: Difference of `CO[C@H]1/C=C/O[C@@]2(C)Oc3c(C)c(O)c4c(O)c(c5c(nc6cc(C)ccn65)c4c3C2=O)NC(=O)/C(C)=C\C=C\[C@H](C)[C@H](O)[C@@H](C)[C@@H](O)[C@@H](C)[C@H](OC(C)=O)[C@@H]1C` lies strictly below -0.3
[out] no (0)

[in] Confirm or reject: Difference of C[S+](C)CCC(N)C(=O)O.[Cl-] (racemic) [DL-Methionine methylsulfonium (chloride)] lies strictly below -0.3
[out] no (0)

[in] Confirm or reject: Difference of Cc1oc(=O)oc1COC(=O)[C@@H]1N2C(=O)[C@@H](NC(=O)[C@H](N)c3ccccc3)[C@H]2SC1(C)C [Lenampicillin (hydrochloride)] lies strictly below -0.3
[out] no (0)

[in] Confirm or reject: Difference of `Cc1cc2nc3c(=O)[nH]c(=O)nc-3n(C[C@H](O)[C@H](O)[C@H](O)COP(=O)(O)OP(=O)(O)OC[C@H]3O[C@@H](n4cnc5c(N)ncnc54)[C@H](O)[C@@H]3O)c2cc1C` lies strictly below -0.3
[out] no (0)

[in] Confirm or reject: Difference of `CN1CCc2nc(C(=O)N[C@@H]3C[C@@H](C(=O)N(C)C)CC[C@@H]3NC(=O)C(=O)Nc3ccc(Cl)cn3)sc2C1` lies strictly below -0.3
[out] no (0)

[in] Confirm or reject: Difference of CC1(C)S[C@@H]2[C@H](NC(=O)[C@H](N)c3ccc(O)cc3)C(=O)N2[C@H]1C(=O)[O-].[Na+] [Amoxicillin (sodium)] lies strictly below -0.3
[out] no (0)

====

Tested on: NCI-H292 lung cancer cells
test_summary: FDA drug screening, complete media vs cholesterol-free media with simvastatin (TABLE 2)
Assay type: cell-based, human
recorded_conditions: NCI-H292 cells, cholesterol-free media with simvastatin 0.04 μM; cell growth value in FDA drug screen
Where a name gives a salt, the structure may show the parent alone.
measurement_name: Cholesterol-free media + simvastatin (0.04 μM)
No unit in the answer, please; the number alone is enough.

[in] Complete the entry with Cholesterol-free media + simvastatin (0.04 μM) for CC(C)[N+](C)(CCC(C(N)=O)(c1ccccc1)c1ccccc1)C(C)C.[I-] [Isopropamide (iodide)]
[out] 0.9908

[in] Complete the entry with Cholesterol-free media + simvastatin (0.04 μM) for CC/C(=C(/CC)c1ccc(O)cc1)c1ccc(O)cc1 [Diethylstilbestrol]
[out] 0.993

[in] Complete the entry with Cholesterol-free media + simvastatin (0.04 μM) for CC(=O)Oc1c(C)cc(OCC(O)CNC(C)C)c(C)c1C (centres unmarked) [Metipranolol hydrochloride]
[out] 0.8039

[in] Complete the entry with Cholesterol-free media + simvastatin (0.04 μM) for O=C(CCCN1CCC(O)(c2ccc(Cl)cc2)CC1)c1ccc(F)cc1 [Haloperidol]
[out] 0.8115

[in] Complete the entry with Cholesterol-free media + simvastatin (0.04 μM) for COC(=O)C1=C(C)NC(C)=C(C(=O)OC(C)(C)CN(C)CCC(c2ccccc2)c2ccccc2)C1c1cccc([N+](=O)[O-])c1 (centres unmarked) [Lercanidipine (hydrochloride)]
[out] 0.8086

====

Test system: NCI-H292 lung cancer cells
test_summary: FDA drug screening, complete media vs cholesterol-free media with simvastatin (TABLE 2)
Assay type: cell-based, human
recorded_conditions: NCI-H292 cells, FDA library drug in cholesterol-free media with simvastatin 0.04 μM
Counter-ions that a name gives are not always drawn.
measurement_name: Cholesterol-free media + simvastatin (0.04 μM)
No unit in the answer, please; the number alone is enough.

[in] Supply Cholesterol-free media + simvastatin (0.04 μM) measured with NCI-H292 lung cancer cells for O=C(O)CCCCCCCC(=O)O [Azelaic acid] .
[out] 1.245

[in] Supply Cholesterol-free media + simvastatin (0.04 μM) measured with NCI-H292 lung cancer cells for Cc1ccc(=O)n(-c2ccccc2)c1 [Pirfenidone] .
[out] 1.397

[in] Supply Cholesterol-free media + simvastatin (0.04 μM) measured with NCI-H292 lung cancer cells for Cc1ccccc1C(=O)Nc1ccc(C(=O)N2CCCC(N(C)C)c3ccccc32)cc1 (stereo not drawn) [Mozavaptan] .
[out] 1.121

[in] Supply Cholesterol-free media + simvastatin (0.04 μM) measured with NCI-H292 lung cancer cells for CN1C(C(=O)Nc2ccccn2)=C(O)c2ccccc2S1(=O)=O [Piroxicam] .
[out] 1.433

[in] Supply Cholesterol-free media + simvastatin (0.04 μM) measured with NCI-H292 lung cancer cells for NC(=O)CCC(N)C(=O)O (racemic) [DL-Glutamine] .
[out] 0.9407

[in] Supply Cholesterol-free media + simvastatin (0.04 μM) measured with NCI-H292 lung cancer cells for CO[C@H]1/C=C/O[C@@]2(C)Oc3c(C)c(O)c4c(O)c(c(/C=N/N5CCN(C)CC5)c(O)c4c3C2=O)NC(=O)/C(C)=C\C=C\[C@H](C)[C@H](O)[C@@H](C)[C@@H](O)[C@@H](C)[C@H](OC(C)=O)[C@@H]1C [Rifampicin] .
[out] 1.219

[in] Supply Cholesterol-free media + simvastatin (0.04 μM) measured with NCI-H292 lung cancer cells for C/C(O)=C(\C#N)C(=O)Nc1ccc(C(F)(F)F)cc1 [Teriflunomide] .
[out] 1.712

[in] Supply Cholesterol-free media + simvastatin (0.04 μM) measured with NCI-H292 lung cancer cells for CNC(=O)c1cnn(-c2nc(N)c3ncn([C@@H]4O[C@H](CO)[C@@H](O)[C@H]4O)c3n2)c1 [Regadenoson] .
[out] 1.362

[in] Supply Cholesterol-free media + simvastatin (0.04 μM) measured with NCI-H292 lung cancer cells for C[S+](C)CCC(N)C(=O)O.[Cl-] (racemic) [DL-Methionine methylsulfonium (chloride)] .
[out] 1.182

[in] Supply Cholesterol-free media + simvastatin (0.04 μM) measured with NCI-H292 lung cancer cells for COC(=O)N[C@H](C(=O)N1CC2(CC2)C[C@H]1c1nc(-c2ccc3c(c2)C(F)(F)c2cc(-c4ccc5[nH]c([C@@H]6[C@H]7CC[C@H](C7)N6C(=O)[C@@H](NC(=O)OC)C(C)C)nc5c4)ccc2-3)c[nH]1)C(C)C [Ledipasvir (acetone)] .
[out] 1.383

[in] Supply Cholesterol-free media + simvastatin (0.04 μM) measured with NCI-H292 lung cancer cells for Cc1cccc(C)c1NC(=O)C1CCCCN1C (stereo not drawn) [Mepivacaine] .
[out] 1.558

[in] Supply Cholesterol-free media + simvastatin (0.04 μM) measured with NCI-H292 lung cancer cells for C[C@@H](CN1CC(=O)NC(=O)C1)N1CC(=O)NC(=O)C1 [Dexrazoxane (hydrochloride)] .
[out] 1.279

[in] Supply Cholesterol-free media + simvastatin (0.04 μM) measured with NCI-H292 lung cancer cells for C[C@H](O)[C@H](O)[C@H]1CNc2nc(N)[nH]c(=O)c2N1 [Tetrahydrobiopterin] .
[out] 1.389

[in] Supply Cholesterol-free media + simvastatin (0.04 μM) measured with NCI-H292 lung cancer cells for COCCCOc1ccnc(C[S+]([O-])c2nc3ccccc3[n-]2)c1C.[Na+] (stereo not drawn) [Rabeprazole (sodium)] .
[out] 1.461

[in] Supply Cholesterol-free media + simvastatin (0.04 μM) measured with NCI-H292 lung cancer cells for CNCCCC12CCC(c3ccccc31)c1ccccc12 [Maprotiline (hydrochloride)] .
[out] 1.215
